Ref: patent US10428140B2

# hEphA5-SEAP-: absorbance at 450 nm, percentage with respect to hEphA4-SEAP-His as 100% values compiled below
- target.or.system: T1, human EphA5 (Homo sapiens, UniProt P54756)
- T1 construct: a protein of the extracellular region of each human Eph receptor fused with the SEAP protein and the His tag; made in house; host or cells: Expi293F cells (culture supernatant)
- T1 sequence (P54756 25-573 limits assumed): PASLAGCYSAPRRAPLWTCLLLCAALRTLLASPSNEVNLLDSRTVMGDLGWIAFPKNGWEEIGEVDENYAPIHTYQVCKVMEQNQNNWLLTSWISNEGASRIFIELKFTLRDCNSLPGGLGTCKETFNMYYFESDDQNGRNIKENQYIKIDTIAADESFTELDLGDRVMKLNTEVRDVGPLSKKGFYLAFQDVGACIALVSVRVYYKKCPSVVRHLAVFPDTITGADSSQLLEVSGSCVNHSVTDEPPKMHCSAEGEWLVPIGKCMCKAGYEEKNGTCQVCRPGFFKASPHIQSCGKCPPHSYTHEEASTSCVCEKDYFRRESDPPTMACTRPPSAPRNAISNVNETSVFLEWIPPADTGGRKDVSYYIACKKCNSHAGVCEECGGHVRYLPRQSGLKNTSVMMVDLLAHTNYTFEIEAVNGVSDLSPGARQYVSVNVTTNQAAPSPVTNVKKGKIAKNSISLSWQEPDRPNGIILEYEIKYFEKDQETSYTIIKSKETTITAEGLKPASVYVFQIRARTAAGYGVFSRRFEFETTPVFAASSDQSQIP
- procedure.text: Selectivity ELISA of humanized antibodies for human Eph receptor
- Format: binding
- condition.details: coated protein 1 nM
Please respond with the number in % and leave the unit unwritten.

molecule	measured
78 (antibody, V domains shown, synthetic humanized antibody heavy chain variable region sequence; synthetic humanized antibody light chain variable region sequence) VH: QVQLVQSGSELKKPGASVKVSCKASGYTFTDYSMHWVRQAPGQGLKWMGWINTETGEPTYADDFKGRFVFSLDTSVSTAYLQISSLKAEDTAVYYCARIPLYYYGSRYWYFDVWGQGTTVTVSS VL: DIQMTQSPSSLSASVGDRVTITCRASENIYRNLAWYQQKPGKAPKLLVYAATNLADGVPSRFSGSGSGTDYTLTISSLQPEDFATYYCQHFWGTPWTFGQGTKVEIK	5.1
142 (antibody, V domains shown, synthetic humanized antibody heavy chain variable region sequence; synthetic humanized antibody light chain variable region sequence) VH: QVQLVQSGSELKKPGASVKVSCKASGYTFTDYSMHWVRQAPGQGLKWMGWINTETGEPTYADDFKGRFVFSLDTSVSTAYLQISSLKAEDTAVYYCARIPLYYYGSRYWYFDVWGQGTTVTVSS VL: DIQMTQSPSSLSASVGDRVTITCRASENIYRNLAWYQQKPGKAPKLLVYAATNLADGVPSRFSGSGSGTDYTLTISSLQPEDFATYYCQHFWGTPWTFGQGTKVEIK	5.7
158 (antibody, V domains shown, synthetic humanized antibody heavy chain variable region sequence; synthetic humanized antibody light chain variable region sequence) VH: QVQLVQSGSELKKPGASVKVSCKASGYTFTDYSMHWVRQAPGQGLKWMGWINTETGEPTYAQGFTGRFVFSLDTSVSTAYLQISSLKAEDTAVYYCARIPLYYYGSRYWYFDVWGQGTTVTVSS VL: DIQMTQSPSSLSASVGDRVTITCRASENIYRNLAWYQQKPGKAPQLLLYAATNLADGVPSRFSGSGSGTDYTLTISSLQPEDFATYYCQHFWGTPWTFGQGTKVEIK	6.7
69 (antibody, V domains shown, synthetic humanized antibody heavy chain variable region sequence; synthetic humanized antibody light chain variable region sequence) VH: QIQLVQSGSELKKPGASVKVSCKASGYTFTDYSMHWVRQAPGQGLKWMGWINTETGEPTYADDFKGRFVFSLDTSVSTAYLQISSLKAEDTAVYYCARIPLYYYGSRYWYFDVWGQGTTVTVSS VL: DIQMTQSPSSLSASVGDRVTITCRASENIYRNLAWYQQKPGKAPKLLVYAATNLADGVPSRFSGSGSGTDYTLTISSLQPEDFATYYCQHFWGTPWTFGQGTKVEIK	5.6
85 (antibody, V domains shown, constant regions without entry; synthetic humanized antibody light chain variable region sequence; synthetic humanized antibody heavy chain variable region sequence) VL: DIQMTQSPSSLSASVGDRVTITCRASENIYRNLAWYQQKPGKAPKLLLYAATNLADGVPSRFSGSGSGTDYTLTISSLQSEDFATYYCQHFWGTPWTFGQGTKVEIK VH: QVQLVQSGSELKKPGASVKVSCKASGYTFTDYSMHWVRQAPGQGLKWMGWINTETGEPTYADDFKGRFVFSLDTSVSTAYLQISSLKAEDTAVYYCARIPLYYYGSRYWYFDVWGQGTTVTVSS	5.0

## Task Quick one: hEphA5-SEAP-: absorbance at 450 nm, percentage with respect to hEphA4-SEAP-His as 100% for 87 (antibody, V domains shown, constant regions without entry; synthetic humanized antibody light chain variable region sequence; synthetic humanized antibody heavy chain variable region sequence) VL: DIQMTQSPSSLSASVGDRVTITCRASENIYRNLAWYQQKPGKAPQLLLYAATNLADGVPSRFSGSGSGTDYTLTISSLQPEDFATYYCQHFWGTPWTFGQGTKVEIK VH: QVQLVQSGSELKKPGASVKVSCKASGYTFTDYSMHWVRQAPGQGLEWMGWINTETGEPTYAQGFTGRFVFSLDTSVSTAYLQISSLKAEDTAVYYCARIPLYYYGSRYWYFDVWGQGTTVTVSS ?
## Result 5.4

## Task # lookup: hEphA5-SEAP-: absorbance at 450 nm, percentage with respect to hEphA4-SEAP-His as 100% of 134 (antibody, V domains shown, synthetic humanized antibody heavy chain variable region sequence; synthetic humanized antibody light chain variable region sequence) VH: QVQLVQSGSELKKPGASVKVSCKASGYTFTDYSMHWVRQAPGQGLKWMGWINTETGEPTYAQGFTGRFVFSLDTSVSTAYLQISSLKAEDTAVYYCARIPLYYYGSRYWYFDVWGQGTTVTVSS VL: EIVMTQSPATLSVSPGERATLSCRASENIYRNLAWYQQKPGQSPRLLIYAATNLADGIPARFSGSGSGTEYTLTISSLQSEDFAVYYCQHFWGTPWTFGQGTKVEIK
## Result 5.2
